Property: displacement; scope: individual compounds
# tested_system: E3 ubiquitin-protein ligase XIAP (Homo sapiens)
# assay_procedure: small molecules displacing peptide from XIAP – biochemical, IAP family, fluorescence polarization (AID 1018)
# test_conditions: XIAP BIR domain, at 20 µM, hits give high values
In all, about 200,000 compounds went through this assay and about 15 (0.007%) were called active. For the sample, actives were picked, then their nearest neighbours and some compounds at random.
quantity: displacement (%)

                                    compound  numeric_value
 0  O=C(COc1ccc(Cl)cc1[N+](=O)[O-])N/N=C/c1cccs1          -10.2
 1             Cc1ccc(NC(=O)c2cccc(Cl)c2)nc1           -1.6
 2          CCNc1ccc2noc3c2c1C(=O)c1ccccc1-3           -8.9
 3  N/C(=N\OC(=O)CCC1CCCC1)c1ccc([N+](=O)[O-])cc1           -1.2
 4   Cc1ccc(CNC(=O)Cn2cc(C(F)(F)F)ccc2=O)cc1           -2.9
 5  O=C(c1ccc2c(=O)n(C3CCCC3)c(=S)[nH]c2c1)N1CCCCCC1           68.1
 6                O=C(Cn1cc(CCO)nn1)N1CCNCC1          -26.3
 7             Cc1ccc(NC(=O)c2ccc(Cl)nc2)cc1           -3.5
 8  CN(C)C(CNC(=O)Cc1cccc(C(F)(F)F)c1)c1ccco1 (stereo unspecified)          -10.8
 9      O=C(c1cc(COc2ccc(F)cc2F)on1)N1CCSCC1           -0.5
10                  O=C(COc1ccccc1)Nc1ccncc1           -2.7
11  O=C1c2ccccc2-c2onc3ccc(NCCCn4ccnc4)c1c23           70.1
12  CC1CCCN(C(=O)c2ccc3c(=O)n(C4CCCC4)c(=S)[nH]c3c2)C1 (stereo unspecified)           -8.7
13                 CCC/C=N/NC(=O)c1ccc(F)cc1           -5.5
14    O=C1c2ccccc2-c2onc3ccc(NCc4ccco4)c1c23           76.4
15   N=C1C(c2ccccc2)=C(O)CN1c1ccccc1N1CCOCC1           -6.4
16  O=C(COC(=O)c1ccc[n+]([O-])c1)Nc1c(Br)cc([N+](=O)[O-])cc1Br           -4.5
17  COCCNC(=O)NC(=O)COC(=O)c1ccc2[nH]c3c(c2c1)CCCC3           -1.1
18  CC(C)(C)n1nnnc1C(c1cccnc1)N1CCN(c2cccc(C(F)(F)F)c2)CC1 (stereo unspecified)           -2.9
19  O=C(CCCC(=O)OCC(Cl)=C(Cl)Cl)Nc1cccc(F)c1           -3.5
20  COc1ccc(C(=O)NC(=S)N2CC(C)OC(C)C2)cc1OC (stereo unspecified)           -1.8
21  O=C(COC(=O)CCc1nc2ccccc2s1)Nc1cccc(S(=O)(=O)N2CCOCC2)c1           -5.8
22  Cc1cc(C)c(NC(=S)N(CCN(C)C)Cc2cccs2)c(C)c1          -10.6
23                O=C(O)/C=C\C(=O)NCc1cccnc1           -9.2
24  CCN(CC)S(=O)(=O)c1ccc(C)c(NC(=O)COC(=O)CNC(=O)c2ccc(C(C)(C)C)cc2)c1          -10.4
25  Cc1cccc(S(=O)(=O)NCC2CCCO2)c1 (stereo unspecified)           -6.3
26  Cc1ccc2nc(C3CCCN(C(=S)Nc4ccccc4C)C3)[nH]c2c1 (stereo unspecified)            -10
27      Cc1cccc2cc(COC(=O)C(C)C)c(=O)[nH]c12           -4.3
28  CCCOC(=O)/C(=C\C=C\c1ccco1)NC(=O)c1ccccc1           -0.1
29      Cc1ccc(Sc2nc(C)cc(C)c2S(C)(=O)=O)cc1           -4.9
30         CC(C)CNC(=O)NC(=O)COc1ncnc2sccc12           -1.4

The values you see were collected from PubChem BioAssay AID1018.
